Target: T1, Full-length human IL-33 (amino acids 1-270), HEK293-EBNA cell lysate (human, UniProt O95760 1-270)
T1 sequence (looked up): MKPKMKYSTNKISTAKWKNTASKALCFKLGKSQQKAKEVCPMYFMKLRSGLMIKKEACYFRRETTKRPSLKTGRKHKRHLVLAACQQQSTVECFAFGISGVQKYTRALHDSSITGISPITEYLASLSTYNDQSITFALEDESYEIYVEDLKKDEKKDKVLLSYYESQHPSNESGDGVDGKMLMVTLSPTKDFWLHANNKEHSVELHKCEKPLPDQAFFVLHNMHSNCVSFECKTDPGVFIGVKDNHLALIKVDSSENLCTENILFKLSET
Test: cell-based or functional assay
I'd appreciate it if you could supply IC50, Huvec IL-8 assay vs. full length IL-33 cell lysate values for the items below.
Give the number; nM is assumed, so skip it.

Quickly give me recorded IC50, Huvec IL-8 assay vs. full length IL-33 cell lysate for 33_640237 IgG1 (antibody, V domains shown, IgG1; also called ZZ1M37-E06) VH: EVQLLESGGGLVQPGGSLRLSCAASGFTFSSYAMSWVRQAPGKGLEWVSGIADDFTSTYYADPVKGRFTISRDNSKNTLYLQMNSLRAEDTAVYYCARDLWMMNYAGGLRYPFGYWGQGTTVTVSS VL: SYVLTQPPSVSVSPGQTASITCSGERMGDKYAAWYQQKPGQSPVLVIYRDTKRPSGIPERFSGSNSGNTATLTISGTQAIDEADYYCGVLKQDTGVFGGGTKVTVL
0.091

Please look at this binder and report its IC50, Huvec IL-8 assay vs. full length IL-33 cell lysate: 33_640076-4 IgG1 (antibody, V domains shown, IgG1) VH: EVQLLESGGGLVQPGGSLRLSCAASGFTFSSYAMSWVRQAPGKGLEWVSGISAIDQSTYYADSVKGRFTISRDNSKNTLYLQMNSLRAEDTAVYYCARDLWMENWVGGLRYPFGYWGQGTMVTVSS VL: SYVLTQPPSVSVSPGQTASITCSGERMGDKYAAWYQQKPGQSPVLVIYRDTKRPSGIPERFSGSNSGNTATLTISGTQAMDEADYYCEVKKSDTGVFGGGTKVTVL
0.095

Read off the recorded IC50, Huvec IL-8 assay vs. full length IL-33 cell lysate for 33_640084-2 IgG1 (antibody, V domains shown, IgG1) VH: EVQLLESGGGLVQPGGSLRLSCAASGFAFSSYAMSWVRQAPGKGLEWVSAISGSGGSTYYADSVKGRFTISRDNSKNTLYLQMNSLRAEDTAVYYCARQKFMQLWGGGLRYPFGYWGQGTMVTVSS VL: SYVLTQPPSVSVSPGQTASITCSGERMGDKYAAWYQQKPGQSPVLVIYRDTKRPSGIPERFSGSNSGNTATLTISGTQAMDEADYYCQVWRDDSPIFGGGTKVTVL
0.132
